Target: human thyroid hormone receptor TRα (TRα1) (Homo sapiens, UniProt P10827)
Sequence (P10827 1-410 isoform P10827-2): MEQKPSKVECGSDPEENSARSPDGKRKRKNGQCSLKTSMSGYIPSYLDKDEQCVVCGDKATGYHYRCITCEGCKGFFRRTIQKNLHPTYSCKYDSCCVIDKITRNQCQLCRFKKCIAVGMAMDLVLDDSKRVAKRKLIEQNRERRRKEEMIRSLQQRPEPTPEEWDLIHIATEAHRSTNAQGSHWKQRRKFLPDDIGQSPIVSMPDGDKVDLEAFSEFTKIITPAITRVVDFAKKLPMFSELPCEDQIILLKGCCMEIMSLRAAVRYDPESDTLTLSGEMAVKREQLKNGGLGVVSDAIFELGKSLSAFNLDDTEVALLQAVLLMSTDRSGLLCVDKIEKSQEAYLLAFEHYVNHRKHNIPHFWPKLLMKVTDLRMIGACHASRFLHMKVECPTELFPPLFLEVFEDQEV
Sequence (P19793 1-462 partner): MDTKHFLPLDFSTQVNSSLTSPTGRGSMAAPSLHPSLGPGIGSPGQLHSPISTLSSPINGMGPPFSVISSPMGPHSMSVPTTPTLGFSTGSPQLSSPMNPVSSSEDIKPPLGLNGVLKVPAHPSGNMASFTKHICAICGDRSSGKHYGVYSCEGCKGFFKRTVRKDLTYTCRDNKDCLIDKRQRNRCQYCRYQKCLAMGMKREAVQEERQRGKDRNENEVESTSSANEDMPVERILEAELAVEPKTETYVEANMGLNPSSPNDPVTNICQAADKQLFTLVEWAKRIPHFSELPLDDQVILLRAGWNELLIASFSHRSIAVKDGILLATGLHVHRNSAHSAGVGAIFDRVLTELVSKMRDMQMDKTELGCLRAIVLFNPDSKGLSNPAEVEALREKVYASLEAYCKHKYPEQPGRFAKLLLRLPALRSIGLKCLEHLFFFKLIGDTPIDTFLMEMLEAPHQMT
Experiment: Receptor binding, TRα (125I-T3 displacement / SPA)
valueKind: Kd (nM)
Enter your answer as a number in nM; do not include the unit.

Let me know recorded Kd for Cc1cc(CS(=O)(=O)O)cc(C)c1Cc1ccc(O)c(C(C)C)c1 , thanks.
12

---

Target: UniProt:P10828
Sequence (P10828 whole entry, one chain of several): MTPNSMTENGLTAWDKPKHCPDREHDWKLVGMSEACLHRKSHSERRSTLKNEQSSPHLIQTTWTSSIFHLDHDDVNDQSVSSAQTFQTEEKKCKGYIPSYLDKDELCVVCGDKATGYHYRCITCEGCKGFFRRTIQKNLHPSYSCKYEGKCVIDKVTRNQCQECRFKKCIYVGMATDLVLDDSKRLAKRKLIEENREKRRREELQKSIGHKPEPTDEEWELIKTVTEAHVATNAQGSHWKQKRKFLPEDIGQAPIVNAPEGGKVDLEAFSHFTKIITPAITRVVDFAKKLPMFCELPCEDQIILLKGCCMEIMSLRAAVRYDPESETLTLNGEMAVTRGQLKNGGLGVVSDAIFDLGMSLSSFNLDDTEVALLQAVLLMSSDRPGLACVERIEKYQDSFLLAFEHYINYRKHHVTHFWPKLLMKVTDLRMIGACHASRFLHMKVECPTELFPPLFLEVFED
Experiment: Receptor binding, TRβ (125I-T3 displacement / SPA)
valueKind: Kd (nM)
Enter your answer as a number in nM; do not include the unit.

Let me know recorded Kd for Cc1cc(CS(=O)(=O)O)cc(C)c1Cc1ccc(O)c(C(C)C)c1 , thanks.
0.7

The reported measurements were obtained from patent US20120046364A1.
